Tested on: S. epidermidis
protocol-summary: MIC determination (CLSI, Mueller Hinton broth), planktonic cultures
Format: cell-based
cond: Staphylococcus epidermidis, MH with 1% Glucose, Aerobic, read-out: Minimum Inhibition Concentration
MIC values for the compounds below.
Kindly answer with a numeric value in µM, unit omitted.

Record excerpt, results attached:
Cn1sc(Cl)c(C#N)c1=O | 10.4
NC(=S)N1CCN(c2cc3c(cc2F)c(=O)c(C(=O)O)cn3C2CC2)CC1 | 5.86
O=C(O)c1cn(C2CC2)c2c(F)c(-c3ccncc3)c(F)cc2c1=O | 7.81

# context switch: different compound, same MIC
Query: Checklist item: MIC tested on S. epidermidis, entry `O=C(O)c1cn(C2CC2)c2c(F)c(N3CC(O)C3)c(F)cc2c1=O` , value?
Response: 0.65

###

Tested on: S. epidermidis
protocol-summary: MIC determination (CLSI, Mueller Hinton broth), planktonic cultures
Type: cell-based
cond: Staphylococcus epidermidis, across all media and conditions (aerobic and anaerobic), read-out: concentration required to inhibit planktonic S. epidermidis growth (MIC)
assay-readout: MIC

Record excerpt, results attached:
O=C(O)c1cn(C2CC2)c2c(F)c(-c3ccncc3)c(F)cc2c1=O | 4 to 10 µM
NC(=S)N1CCN(c2cc3c(cc2F)c(=O)c(C(=O)O)cn3C2CC2)CC1 | 4 to 10 µM

Query: Entry under review: `Cn1sc(Cl)c(C#N)c1=O` . Reported MIC?
Response: 10 to 25 µM

Query: Entry under review: `O=C(O)c1cn(C2CC2)c2c(F)c(N3CC(O)C3)c(F)cc2c1=O` . Reported MIC?
Response: < 1 µM

###

MIC values for the molecules below.
System: P. aeruginosa
protocol-summary: MIC determination (CLSI, Mueller Hinton broth), planktonic cultures
Format: cell-based, Pseudomonas aeruginosa
cond: Pseudomonas aeruginosa, MH with 1% KNO3, Anaerobic, read-out: Minimum Inhibition Concentration

Cn1sc(Cl)c(C#N)c1=O | 25 µM
O=C(O)c1cn(C2CC2)c2c(F)c(-c3ccncc3)c(F)cc2c1=O | 25 µM
O=C(O)c1cn(C2CC2)c2c(F)c(N3CC(O)C3)c(F)cc2c1=O | 7 µM

# context switch: different molecule, same MIC
Query: Entry under review: `NC(=S)N1CCN(c2cc3c(cc2F)c(=O)c(C(=O)O)cn3C2CC2)CC1` . Reported MIC?
Response: 4.17 µM

###

Test system: A. baumannii biofilm
protocol-summary: HTS live biofilm assay (resazurin metabolic activity)
Assay type: cell-based, Acinetobacter baumannii
cond: Acinetobacter baumannii, 10 point dose-response 0.1-50 μM
assay-readout: log10(AC50) (log10 of the value in µM)
Answers are given as log10 of AC50 in µM.

Record excerpt, results attached:
O=C(N/N=C/c1cc(Br)c(O)cc1O)c1cc2c(ccc3ccccc32)o1 | 0.95
O/N=C1/C=Cc2[nH]c(-c3ccccc3)cc2/C1=N/O | 0.66
Oc1c(I)cc(I)cc1/C=N/c1ccc2[nH]c(-c3ccccc3)nc2c1 | 1.24

Query: Entry under review: `O=C(O)c1cn(C2CC2)c2c(F)c(-c3ccncc3)c(F)cc2c1=O` . Reported log10(AC50)?
Response: -0.21

Query: Entry under review: `Cc1n[nH]c(O)c1C(c1cccc(OCc2ccc(Cl)c(Cl)c2)c1)c1c(C)n[nH]c1O` . Reported log10(AC50)?
Response: 0.91

Query: Entry under review: `Cn1sc(Cl)c(C#N)c1=O` . Reported log10(AC50)?
Response: 0.61

Query: Entry under review: Oc1ccc2c(c1O)O[C@@]13NC(=S)N[C@@H](c4ccccc4)[C@H]1CCC[C@H]3[C@H]2c1ccccc1 (relative stereo) . Reported log10(AC50)?
Response: 0.05

Query: Entry under review: `NC(=S)N1CCN(c2cc3c(cc2F)c(=O)c(C(=O)O)cn3C2CC2)CC1` . Reported log10(AC50)?
Response: 0.93

Query: Entry under review: `CCCCC(C(=O)N/N=C/c1cc(Br)ccc1O)C(=O)N/N=C/c1cc(Br)ccc1O` . Reported log10(AC50)?
Response: 0.10

Query: Entry under review: `NC1=CC(=O)c2nonc2C1=O` . Reported log10(AC50)?
Response: 0.51

Query: Entry under review: `Nc1nonc1-c1nc2ccccc2n1CC(=O)N/N=C/c1cc(Br)cc(Br)c1O` . Reported log10(AC50)?
Response: 0.99

Query: Entry under review: `O=C(O)c1cn(C2CC2)c2c(F)c(N3CC(O)C3)c(F)cc2c1=O` . Reported log10(AC50)?
Response: 0.37

Query: Entry under review: `O=C(N/N=C/c1ccc(O)cc1O)c1cc(-c2ccccc2)nc2ccccc12` . Reported log10(AC50)?
Response: 0.86

Query: Entry under review: CCCCOC(=O)C(=O)CC(=O)/C=C/c1ccccc1 [Compound 30, Butyl (E)-2,4-dioxo-6-phenylhex-5-enoate] . Reported log10(AC50)?
Response: 0.37
